Target: recombinant human oncostatin M (Homo sapiens)
Construct: labelled with RED-NHS 2nd generation dye for MST
Sequence (P13725 26-221): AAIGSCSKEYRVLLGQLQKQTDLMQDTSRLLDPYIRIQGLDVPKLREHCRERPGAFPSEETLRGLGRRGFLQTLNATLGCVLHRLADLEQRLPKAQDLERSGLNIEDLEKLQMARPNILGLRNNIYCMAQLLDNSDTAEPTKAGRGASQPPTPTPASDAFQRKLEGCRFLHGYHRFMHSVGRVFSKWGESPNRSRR
Experiment: microscale thermophoresis
measureName: Kd
Show the value, then the unit it is measured in.

Log: recombinant human oncostatin M (Homo sapiens), molecule CC1(C)[C@@H]2CC[C@@]1(CS(=O)(=O)O)C(=O)/C2=C/c1ccc(/C=C2/C(=O)[C@]3(CS(=O)(=O)O)CC[C@H]2C3(C)C)cc1 [1a, Ecamsule] , Kd = 11.4 µM
